target: Cyclophilin A (Homo sapiens); construct: made in house; experiment: AlphaLISA inhibition of binding of biotinylated Cyclosporin A to FLAG tagged Cyclophilin A; details: test concentration not given
Sequence (P62937 whole entry, species assumed): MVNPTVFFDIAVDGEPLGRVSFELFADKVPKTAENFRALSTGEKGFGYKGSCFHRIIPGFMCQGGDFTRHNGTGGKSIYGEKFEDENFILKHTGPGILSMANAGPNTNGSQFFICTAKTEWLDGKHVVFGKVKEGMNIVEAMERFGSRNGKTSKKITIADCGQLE
Where a SMILES comes first, the peptide text is derived from it. [ ]: non-standard residue; d: D form. MeBmt = C/C=C/C[C@@H](C)[C@@H](O)[C@H](NC)C(=O)O; NMeY = CN[C@@H](Cc1ccc(O)cc1)C(=O)O; NMeI = CC[C@H](C)[C@H](NC)C(=O)O; NMeL = CN[C@@H](CC(C)C)C(=O)O; NMeV = CN[C@H](C(=O)O)C(C)C; dNMeA = CN[C@H](C)C(=O)O; Abu = CC[C@H](N)C(=O)O; Sar = CNCC(=O)O
measurement_label: % inhibition of CsA binding to Cyclophilin A (%)
Number in %, nothing else.

Previously resolved entries follow.
compound	result_units	numeric_readout
C/C=C/C[C@@H](C)[C@@H](O)[C@H]1C(=O)N[C@@H](CC)C(=O)N(C)CC(=O)N(C)[C@H](C)C(=O)N[C@@H](C)C(=O)N(C)CC(=O)N[C@@H](C)C(=O)N[C@H](C)C(=O)N(C)[C@@H](CC(C)C)C(=O)N(C)[C@@H](CC(C)C)C(=O)N(C)[C@@H](C(C)C)C(=O)N1C [Compound C19] (cyclo([MeBmt][Abu][Sar][dNMeA]A[Sar]A[dA][NMeL][NMeL][NMeV]))	%	83.21
C/C=C/C[C@@H](C)[C@@H](O)[C@H]1C(=O)N[C@@H](CC)C(=O)N(C)CC(=O)N(C)[C@@H](Cc2ccc(O)cc2)C(=O)N[C@@H](C(C)C)C(=O)N(C)CC(=O)N[C@@H](C)C(=O)N[C@H](C)C(=O)N(C)[C@@H](CC(C)C)C(=O)N(C)[C@@H](CC(C)C)C(=O)N(C)[C@@H](C(C)C)C(=O)N1C [Compound C32] (cyclo([MeBmt][Abu][Sar][NMeY]V[Sar]A[dA][NMeL][NMeL][NMeV]))	%	99.86

Turning to the following compound.
Data request: Fill in the blank: the reported % inhibition of CsA binding to Cyclophilin A of C/C=C/C[C@@H](C)[C@@H](O)[C@H]1C(=O)N[C@@H](CC)C(=O)N(C)CC(=O)N(C)[C@@H]([C@@H](C)CC)C(=O)N[C@@H](C(C)C)C(=O)N(C)[C@@H](CC(C)C)C(=O)N[C@@H](CC(C)C)C(=O)N[C@H](C)C(=O)N(C)[C@@H](CC(C)C)C(=O)N(C)[C@@H](CC(C)C)C(=O)N(C)[C@@H](C(C)C)C(=O)N1C [Compound C45] (cyclo([MeBmt][Abu][Sar][NMeI]V[NMeL]L[dA][NMeL][NMeL][NMeV])) is ____.
Data returned: 100.03
